- test target: Cannabinoid receptor 1 (Homo sapiens)
- Sequence (P21554 whole entry): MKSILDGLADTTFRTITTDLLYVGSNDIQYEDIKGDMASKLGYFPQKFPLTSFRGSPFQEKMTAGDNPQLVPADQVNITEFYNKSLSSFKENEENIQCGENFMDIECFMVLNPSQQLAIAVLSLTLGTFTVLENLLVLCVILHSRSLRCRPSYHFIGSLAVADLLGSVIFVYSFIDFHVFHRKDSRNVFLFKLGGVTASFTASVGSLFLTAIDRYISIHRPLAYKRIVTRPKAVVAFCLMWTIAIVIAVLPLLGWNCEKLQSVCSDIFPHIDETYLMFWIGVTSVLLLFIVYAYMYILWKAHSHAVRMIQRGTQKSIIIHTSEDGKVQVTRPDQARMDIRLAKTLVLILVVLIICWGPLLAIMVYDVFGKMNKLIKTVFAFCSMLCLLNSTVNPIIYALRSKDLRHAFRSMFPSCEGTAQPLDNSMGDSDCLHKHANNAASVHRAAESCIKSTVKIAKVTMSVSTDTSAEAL
- protocol text: Antagonist activity at human brain CB1 receptor assessed as inhibition for [35S]GTPgammaS binding
Reported EC50 values for the following compounds.
measurement type: EC50 (µM)

- Cc1c(C(=O)NCCCCCCCN(C)CCCCCCCNC(=O)c2nn(-c3ccc(Cl)cc3Cl)c(-c3ccc(Cl)cc3)c2C)nn(-c2ccc(Cl)cc2Cl)c1-c1ccc(Cl)cc1: 2.24
- Cc1c(C(=O)NCCCCCCCCCN(C)CCCCCCCCCNC(=O)c2nn(-c3ccc(Cl)cc3Cl)c(-c3ccc(Cl)cc3)c2C)nn(-c2ccc(Cl)cc2Cl)c1-c1ccc(Cl)cc1: 0.161
- Cc1c(C(=O)NCCCNCCCNC(=O)c2nn(-c3ccc(Cl)cc3Cl)c(-c3ccc(Cl)cc3)c2C)nn(-c2ccc(Cl)cc2Cl)c1-c1ccc(Cl)cc1: 0.0842
- Cc1c(C(=O)NCCCCCCCNCCCCCCCNC(=O)c2nn(-c3ccc(Cl)cc3Cl)c(-c3ccc(Cl)cc3)c2C)nn(-c2ccc(Cl)cc2Cl)c1-c1ccc(Cl)cc1: 0.179
- Cc1c(C(=O)NCCCCCN(C)CCCCCNC(=O)c2nn(-c3ccc(Cl)cc3Cl)c(-c3ccc(Cl)cc3)c2C)nn(-c2ccc(Cl)cc2Cl)c1-c1ccc(Cl)cc1: 0.0598

FYI, the data here is from ChEMBL document CHEMBL1268814.
